For each entry below, report its DC50 value.
# experimentalTarget: CK1α (Homo sapiens, UniProt P48729+Q96SW2)
# Construct: CSNK1A1-HiBit KI HEK293(LgBit) Cells; host or cells: HEK293(LgBit) knock-in cells
# Sequence (P48729 whole entry): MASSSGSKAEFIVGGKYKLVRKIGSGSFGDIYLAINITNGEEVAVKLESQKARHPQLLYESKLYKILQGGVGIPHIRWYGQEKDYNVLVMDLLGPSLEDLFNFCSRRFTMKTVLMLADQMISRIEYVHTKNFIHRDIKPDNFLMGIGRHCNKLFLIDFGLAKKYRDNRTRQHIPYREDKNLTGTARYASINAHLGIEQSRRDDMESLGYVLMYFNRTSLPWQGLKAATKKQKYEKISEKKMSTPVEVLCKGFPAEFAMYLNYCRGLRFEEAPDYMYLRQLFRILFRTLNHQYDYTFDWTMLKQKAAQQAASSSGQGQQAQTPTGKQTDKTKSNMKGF
# Sequence (Q96SW2 whole entry): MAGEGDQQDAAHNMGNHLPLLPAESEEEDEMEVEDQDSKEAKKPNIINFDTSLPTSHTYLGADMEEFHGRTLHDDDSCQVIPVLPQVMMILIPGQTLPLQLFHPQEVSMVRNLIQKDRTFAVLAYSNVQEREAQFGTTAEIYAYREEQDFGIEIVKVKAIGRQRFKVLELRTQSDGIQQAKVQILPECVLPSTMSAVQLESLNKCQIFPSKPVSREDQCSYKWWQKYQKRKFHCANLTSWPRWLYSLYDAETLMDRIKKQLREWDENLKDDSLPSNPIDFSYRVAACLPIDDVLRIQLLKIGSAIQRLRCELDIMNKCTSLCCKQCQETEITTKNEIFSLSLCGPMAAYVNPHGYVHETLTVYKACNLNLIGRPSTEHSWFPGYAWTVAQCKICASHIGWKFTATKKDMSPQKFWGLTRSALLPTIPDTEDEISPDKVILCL
# Sequence (Q16531 whole entry partner): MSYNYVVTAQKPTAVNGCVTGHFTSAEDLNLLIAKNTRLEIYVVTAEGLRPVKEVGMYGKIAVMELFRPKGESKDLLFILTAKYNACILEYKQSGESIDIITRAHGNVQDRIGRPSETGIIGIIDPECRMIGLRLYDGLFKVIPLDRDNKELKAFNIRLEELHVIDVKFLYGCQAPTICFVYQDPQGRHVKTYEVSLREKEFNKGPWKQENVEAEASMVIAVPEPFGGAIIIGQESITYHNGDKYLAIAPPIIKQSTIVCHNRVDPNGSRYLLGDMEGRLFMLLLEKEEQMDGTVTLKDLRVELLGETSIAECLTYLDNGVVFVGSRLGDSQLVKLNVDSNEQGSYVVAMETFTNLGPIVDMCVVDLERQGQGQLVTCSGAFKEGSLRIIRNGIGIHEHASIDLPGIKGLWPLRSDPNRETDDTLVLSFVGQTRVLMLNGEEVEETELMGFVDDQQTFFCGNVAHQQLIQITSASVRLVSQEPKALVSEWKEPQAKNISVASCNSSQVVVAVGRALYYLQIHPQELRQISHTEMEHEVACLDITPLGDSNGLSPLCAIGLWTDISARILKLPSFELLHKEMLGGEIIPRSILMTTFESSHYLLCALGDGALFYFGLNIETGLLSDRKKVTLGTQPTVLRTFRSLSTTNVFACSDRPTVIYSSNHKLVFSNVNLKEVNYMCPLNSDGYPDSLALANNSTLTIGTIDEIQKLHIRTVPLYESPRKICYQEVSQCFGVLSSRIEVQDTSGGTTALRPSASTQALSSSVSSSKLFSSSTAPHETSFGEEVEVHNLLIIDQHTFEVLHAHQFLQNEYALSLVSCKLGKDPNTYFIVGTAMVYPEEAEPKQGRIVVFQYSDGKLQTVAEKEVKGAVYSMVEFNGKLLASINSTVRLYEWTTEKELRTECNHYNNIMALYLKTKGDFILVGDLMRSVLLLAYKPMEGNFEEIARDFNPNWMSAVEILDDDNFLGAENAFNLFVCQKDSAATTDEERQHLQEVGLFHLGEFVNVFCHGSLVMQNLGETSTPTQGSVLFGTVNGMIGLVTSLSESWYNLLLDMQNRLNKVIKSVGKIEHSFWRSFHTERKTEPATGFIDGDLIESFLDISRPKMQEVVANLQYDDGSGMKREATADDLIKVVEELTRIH
# experimentDescription: HiBiT degradation assay, CK1α, Procedure A
# Type: cell-based
# conditionNotes: six hours

Worked cases, answers included:
COc1cccc(-c2nc(-c3ccc4c(c3)CN(C3CCC(=O)NC3=O)C4=O)cn2C)c1 (centres unmarked) [Example 578] : < 25 nM
Cn1cc(-c2ccc3c(c2)CN(C2CCC(=O)NC2=O)C3=O)nc1-c1ccc2nccn2c1 (centres unmarked) [Example 658] : ≥ 25 nM
Cn1cc(-c2ccc3c(c2)CN(C2CCC(=O)NC2=O)C3=O)nc1-c1cc(F)cc(Cl)c1 (centres unmarked) [Example 586] : < 25 nM

Hey, quick one: what's DC50 for each of these?
1. CCCCc1ccc(-c2nc(-c3ccc4c(c3)CN(C3CCC(=O)NC3=O)C4=O)cn2C)s1 (centres unmarked) [Example 687]
2. Cn1c(C2CC2)nc(-c2ccc3c(c2)CN(C2CCC(=O)NC2=O)C3=O)c1-c1cnc(C2CC2)nc1 (centres unmarked) [Example 548]
3. Cn1cnc(-c2ccc3c(c2)CN(C2CCC(=O)NC2=O)C3=O)c1-c1cn[nH]c1 (centres unmarked) [Example 531]
4. Cn1cc(-c2ccc3c(c2)CN(C2CCC(=O)NC2=O)C3=O)nc1-c1cccc2ccccc12 (centres unmarked) [Example 676]
5. Cn1cc(-c2ccc3c(c2)CN(C2CCC(=O)NC2=O)C3=O)nc1-c1ccc(N2CCOCC2)cc1 (centres unmarked) [Example 666]

Result block:
["< 25 nM", "< 25 nM", "≥ 25 nM", "< 25 nM", "< 25 nM"]
